# measured on: Integrin alpha-V/beta-3 (Homo sapiens, UniProt P05106+P06756)
# Sequence (P05106 27-788 limits assumed): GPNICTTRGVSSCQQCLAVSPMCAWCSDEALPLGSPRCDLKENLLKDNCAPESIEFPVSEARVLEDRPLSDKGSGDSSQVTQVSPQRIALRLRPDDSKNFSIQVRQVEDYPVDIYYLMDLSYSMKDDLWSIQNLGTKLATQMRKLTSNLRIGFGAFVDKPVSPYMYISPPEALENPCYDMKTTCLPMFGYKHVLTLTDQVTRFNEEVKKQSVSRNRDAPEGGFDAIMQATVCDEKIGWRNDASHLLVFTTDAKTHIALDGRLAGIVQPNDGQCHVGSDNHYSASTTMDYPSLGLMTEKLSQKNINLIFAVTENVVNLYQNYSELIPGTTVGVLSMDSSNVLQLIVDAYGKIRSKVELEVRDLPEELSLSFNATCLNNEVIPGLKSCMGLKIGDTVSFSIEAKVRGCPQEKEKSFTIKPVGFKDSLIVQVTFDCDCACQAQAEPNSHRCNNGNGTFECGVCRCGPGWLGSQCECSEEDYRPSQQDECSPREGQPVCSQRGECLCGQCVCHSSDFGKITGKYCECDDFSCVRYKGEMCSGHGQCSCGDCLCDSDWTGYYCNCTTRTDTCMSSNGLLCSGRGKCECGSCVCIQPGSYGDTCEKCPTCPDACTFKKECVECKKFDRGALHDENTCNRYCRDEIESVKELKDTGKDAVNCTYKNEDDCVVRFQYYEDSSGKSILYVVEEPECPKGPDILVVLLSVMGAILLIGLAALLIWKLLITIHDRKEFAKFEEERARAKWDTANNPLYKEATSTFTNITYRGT
# Sequence (P06756 31-889 limits assumed): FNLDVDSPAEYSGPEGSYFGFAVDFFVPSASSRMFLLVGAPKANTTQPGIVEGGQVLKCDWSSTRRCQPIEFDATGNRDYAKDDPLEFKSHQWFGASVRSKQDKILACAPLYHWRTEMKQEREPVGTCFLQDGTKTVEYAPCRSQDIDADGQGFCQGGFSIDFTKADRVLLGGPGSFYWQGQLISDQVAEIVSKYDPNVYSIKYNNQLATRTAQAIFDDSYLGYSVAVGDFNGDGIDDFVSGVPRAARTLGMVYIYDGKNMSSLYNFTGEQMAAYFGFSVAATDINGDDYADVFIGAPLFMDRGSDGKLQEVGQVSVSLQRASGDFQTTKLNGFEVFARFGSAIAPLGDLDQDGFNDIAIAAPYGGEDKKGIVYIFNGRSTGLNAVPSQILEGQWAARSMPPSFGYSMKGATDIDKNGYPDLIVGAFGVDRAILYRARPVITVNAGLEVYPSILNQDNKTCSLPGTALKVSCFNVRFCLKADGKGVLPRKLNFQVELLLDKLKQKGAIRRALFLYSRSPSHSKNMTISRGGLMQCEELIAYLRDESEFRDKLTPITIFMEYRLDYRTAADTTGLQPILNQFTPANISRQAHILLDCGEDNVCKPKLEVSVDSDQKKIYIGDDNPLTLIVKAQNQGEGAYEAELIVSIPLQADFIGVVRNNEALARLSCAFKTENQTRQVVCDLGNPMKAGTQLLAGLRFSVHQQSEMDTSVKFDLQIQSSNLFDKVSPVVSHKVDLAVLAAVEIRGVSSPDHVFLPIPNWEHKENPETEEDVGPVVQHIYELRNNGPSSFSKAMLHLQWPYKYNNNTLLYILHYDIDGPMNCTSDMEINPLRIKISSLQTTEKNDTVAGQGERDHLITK
# Sequence (P06756 891-1048 limits assumed): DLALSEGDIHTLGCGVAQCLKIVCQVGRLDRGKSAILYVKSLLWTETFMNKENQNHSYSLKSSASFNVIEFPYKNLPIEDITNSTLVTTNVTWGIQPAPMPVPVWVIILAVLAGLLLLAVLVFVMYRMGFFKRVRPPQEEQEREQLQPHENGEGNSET
# assay explanation: Antagonist activity at integrin alphaVbeta3 in human A375M cells assessed as cell adhesion to fibrinogen in presence of Mg2+
# Format: functional, cell-based
pIC50: −log10 of the molar value.
pIC50 values by entry

input smiles | pIC50
CNc1cccc(CCOc2ccc(C[C@H](NC(=O)c3ccccc3Cl)C(=O)O)cc2)n1 | 6.28
CNc1cccc(CCOc2ccc(C[C@H](NC(=O)C3(C)CCCCC3)C(=O)O)cc2)n1 | 6.08
CNc1cccc(CCOc2ccc(C[C@H](NC(=O)c3c(Cl)cccc3Cl)C(=O)O)cc2C)n1 | 6.22
COc1ccc([C@H](CC(=O)O)N2CCN(CCCc3ccc4c(n3)NCCC4)C2=O)cn1 | 9.52

* * *

# measured on: Integrin alpha-5/beta-1 (Homo sapiens, UniProt P05556+P08648)
# Sequence (P05556 21-798 limits assumed): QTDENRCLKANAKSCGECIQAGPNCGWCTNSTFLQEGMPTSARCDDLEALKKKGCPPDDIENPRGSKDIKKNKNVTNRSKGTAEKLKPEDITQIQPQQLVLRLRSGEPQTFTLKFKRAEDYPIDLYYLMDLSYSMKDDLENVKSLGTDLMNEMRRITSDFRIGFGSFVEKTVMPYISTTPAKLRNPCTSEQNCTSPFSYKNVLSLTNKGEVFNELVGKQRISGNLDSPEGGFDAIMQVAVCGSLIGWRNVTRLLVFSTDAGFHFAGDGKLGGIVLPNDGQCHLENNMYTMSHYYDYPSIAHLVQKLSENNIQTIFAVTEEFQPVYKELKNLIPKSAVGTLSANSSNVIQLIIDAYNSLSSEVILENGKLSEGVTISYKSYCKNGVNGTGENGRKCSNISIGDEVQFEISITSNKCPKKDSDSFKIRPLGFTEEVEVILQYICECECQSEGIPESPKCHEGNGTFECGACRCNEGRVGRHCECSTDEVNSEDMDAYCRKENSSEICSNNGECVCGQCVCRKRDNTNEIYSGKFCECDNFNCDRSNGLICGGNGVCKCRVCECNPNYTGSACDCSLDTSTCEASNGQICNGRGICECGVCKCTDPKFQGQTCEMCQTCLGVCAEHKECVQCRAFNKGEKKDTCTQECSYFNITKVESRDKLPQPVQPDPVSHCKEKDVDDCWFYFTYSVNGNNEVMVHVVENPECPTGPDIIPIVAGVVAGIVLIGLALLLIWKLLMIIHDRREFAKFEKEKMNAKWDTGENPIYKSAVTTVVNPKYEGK
# Sequence (P08648 42-894 limits assumed): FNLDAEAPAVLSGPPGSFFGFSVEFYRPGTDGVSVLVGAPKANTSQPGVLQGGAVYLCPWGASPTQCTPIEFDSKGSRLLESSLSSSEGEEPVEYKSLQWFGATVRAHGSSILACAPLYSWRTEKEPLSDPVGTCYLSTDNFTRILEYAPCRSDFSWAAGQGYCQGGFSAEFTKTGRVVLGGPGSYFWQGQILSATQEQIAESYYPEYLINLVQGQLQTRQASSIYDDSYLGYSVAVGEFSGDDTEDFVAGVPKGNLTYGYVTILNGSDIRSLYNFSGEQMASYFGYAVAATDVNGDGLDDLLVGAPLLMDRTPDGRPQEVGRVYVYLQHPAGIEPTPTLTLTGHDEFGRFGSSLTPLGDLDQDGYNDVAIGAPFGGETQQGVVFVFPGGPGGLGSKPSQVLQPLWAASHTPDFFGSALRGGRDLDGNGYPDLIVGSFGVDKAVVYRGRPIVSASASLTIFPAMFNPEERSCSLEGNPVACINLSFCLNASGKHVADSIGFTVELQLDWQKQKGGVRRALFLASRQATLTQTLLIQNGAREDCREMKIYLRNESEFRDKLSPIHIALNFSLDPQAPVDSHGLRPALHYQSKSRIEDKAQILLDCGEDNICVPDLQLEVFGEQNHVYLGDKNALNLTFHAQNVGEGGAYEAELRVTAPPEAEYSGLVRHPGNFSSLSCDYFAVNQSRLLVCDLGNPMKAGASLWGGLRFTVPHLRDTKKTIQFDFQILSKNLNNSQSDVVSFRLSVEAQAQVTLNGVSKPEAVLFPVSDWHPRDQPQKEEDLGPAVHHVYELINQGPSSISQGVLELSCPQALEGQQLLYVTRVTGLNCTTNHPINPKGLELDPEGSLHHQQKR
# Sequence (P08648 895-1049 limits assumed): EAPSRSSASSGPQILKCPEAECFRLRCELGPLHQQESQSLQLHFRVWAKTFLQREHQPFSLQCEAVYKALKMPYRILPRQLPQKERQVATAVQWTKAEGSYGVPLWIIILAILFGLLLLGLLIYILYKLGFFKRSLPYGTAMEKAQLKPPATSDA
# assay explanation: Antagonist activity at integrin alpha5beta1 in human K562 cells assessed as inhibition of cell adhesion
# Type: functional, cell-based

input smiles | op | IC50, nM
CNc1cccc(CCOc2ccc(C[C@H](NC(=O)c3c(Cl)cccc3Cl)C(=O)O)cn2)n1 | = | 110
CNc1cccc(CCOc2ccc(C[C@H](NC(=O)c3c(F)cccc3Cl)C(=O)O)cc2)n1 | = | 19
CNc1cccc(CCOc2ccc(C[C@H](NC(=O)c3c(Cl)cccc3Cl)C(=O)O)cc2)n1 | = | 7
O=C(N[C@@H](Cc1cccc(OCCNc2ccccn2)c1)C(=O)O)c1c(Cl)cccc1Cl | > | 290000
CNc1cccc(CCOc2ccc(C[C@H](NC(=O)c3ccccc3)C(=O)O)cc2)n1 | = | 430

* * *

# Organism: Rattus norvegicus
# assay explanation: Free drug level in rat
# Format: ADME, organism-based
# applied conditions: in vivo
Drug uptake(free) values by entry
quantity name: Drug uptake(free) (%)

compound | scale unit | reading
CNc1cccc(CCOc2ccc(C[C@H](NC(=O)C3CCCCC3C)C(=O)O)cc2)n1 (stereo not given in full) | % | 0.9
CNc1cccc(CCOc2ccc(C[C@H](NC(=O)c3c(Cl)cccc3Cl)C(=O)O)cc2)n1 | % | 1.1
CNc1cccc(CCOc2ccc(C[C@H](NC(=O)c3ccccc3Cl)C(=O)O)cc2)n1 | % | 0.5
CNc1cccc(CCOc2ccc(C[C@H](NC(=O)c3ccc(F)cc3Cl)C(=O)O)cc2)n1 | % | 0.3
CNc1cccc(CCOc2ccc(C[C@H](NC(=O)c3c(C)cccc3C)C(=O)O)cc2)n1 | % | 2.2

* * *

# measured on: Integrin alpha-V/beta-3 (Homo sapiens, UniProt P05106+P06756)
# assay explanation: Antagonist activity at integrin alphaVbeta3 in human A375M cells assessed as cell adhesion to fibrinogen in presence of Mg2+
pIC50: −log10 of the molar value.

compound | pIC50
CNc1cccc(CCOc2ccc(C[C@H](NC(=O)c3ccc(F)cc3C3CC3)C(=O)O)cc2)n1 | 6.28
CNc1cccc(CCOc2ccc(C[C@H](NC(=O)c3c(Cl)cccc3Cl)C(=O)O)cc2F)n1 | 6.54
CNc1cccc(CCOc2c(C)cc(C[C@H](NC(=O)c3c(Cl)cccc3Cl)C(=O)O)cc2C)n1 | 5.06
CNc1cccc(CCOc2ccc(C[C@H](NC(=O)c3ccc(F)cc3OC)C(=O)O)cc2)n1 | 5.08
CNc1cccc(CCOc2ccc(C[C@H](NC(=O)c3c(Cl)cncc3Cl)C(=O)O)cc2)n1 | 6.89
CNc1cccc(CCCc2ccc(C[C@H](NC(=O)c3c(Cl)cccc3Cl)C(=O)O)s2)n1 | 6.10
CNc1cccc(CCOc2ccc(C[C@H](NC(=O)c3ccccc3)C(=O)O)cc2)n1 | 5.17
CNc1cccc(CCOc2ccc(C[C@H](NC(=O)c3ccc(F)cc3C)C(=O)O)cc2)n1 | 6.29
CNc1cccc(CCOc2ccc(C[C@H](NC(=O)c3ccc(F)cc3Cl)C(=O)O)cc2)n1 | 6.36
CCc1cc(F)ccc1C(=O)N[C@@H](Cc1ccc(OCCc2cccc(NC)n2)cc1)C(=O)O | 6.47
CNc1cccc(CCOc2ccc(C[C@H](NC(=O)c3c(Cl)cccc3Cl)C(=O)O)nc2)n1 | 6.21
CNc1cccc(CCOc2ccc(C[C@H](NC(=O)c3c(C)cc(C)cc3C)C(=O)O)cc2)n1 | 6.43
O=C(N[C@@H](Cc1ccc(OCCCNc2ccccn2)cc1)C(=O)O)c1c(Cl)cccc1Cl | 5.59
CNc1cccc(CCOc2ccc(C[C@H](NC(=O)c3c(F)cccc3Cl)C(=O)O)cc2)n1 | 6.55
CNc1cccc(CCOc2ccc(C[C@H](NC(=O)c3c(Cl)cccc3Cl)C(=O)O)cc2)n1 | 6.64
CNc1cccc(CCOc2ccc(C[C@H](NC(=O)c3c(C)cccc3C)C(=O)O)cc2)n1 | 6.40
CNc1cccc(CCOc2ccc(C[C@H](NC(=O)C3CCCCC3C)C(=O)O)cc2)n1 (some centres undefined) | 6.02
CNc1cccc(CCOc2ccc(C[C@H](NC(=O)c3c(Cl)cccc3Cl)C(=O)O)cn2)n1 | 5.92
CNc1cccc(CCOc2ccc(C[C@H](NC(=O)c3sccc3Cl)C(=O)O)cc2)n1 | 5.54

// provenance: ChEMBL document CHEMBL2029275
